Taken from ChEMBL document CHEMBL5154681.

What MIC was measured for each of the following?
- Tested on: Escherichia coli
- procedure.details: Antibacterial activity against Escherichia coli ATCC 25922 incubated for 24 hrs by microtiter plate method
- Format: functional
- reported.conditions: Escherichia coli, ATCC 25922, 24 h, read-out: MIC
Square brackets hold non-standard residues; d marks the D form. Peptide text beside a SMILES is read from it. Dip = N[C@H](C(=O)O)C(c1ccccc1)c1ccccc1; 2Nal = N[C@@H](Cc1ccc2ccccc2c1)C(=O)O

Example results:
compound	observed.value
N=C(N)NCCC[C@@H]1NC(=O)[C@H](CCCNC(=N)N)NC(=O)[C@H](CCCNC(=N)N)NC(=O)[C@H](Cc2ccc3ccccc3c2)NC(=O)[C@H](Cc2ccc3ccccc3c2)NC(=O)[C@H](Cc2ccc3ccccc3c2)NC(=O)[C@H](CCCNC(=N)N)NC1=O (cyclo(RRRR[2Nal][2Nal][2Nal]))	25 µg/mL
N=C(N)NCCC[C@@H]1NC(=O)[C@H](CCCNC(=N)N)NC(=O)[C@H](CCCNC(=N)N)NC(=O)[C@H](C(c2ccccc2)c2ccccc2)NC(=O)[C@H](C(c2ccccc2)c2ccccc2)NC(=O)[C@H](C(c2ccccc2)c2ccccc2)NC(=O)[C@H](CCCNC(=N)N)NC(=O)[C@H](CCCNC(=N)N)NC1=O (cyclo([Dip][Dip][Dip]RRRRR))	25 µg/mL

Looking up NCCCC[C@H](NC(=O)[C@H](CCCCN)NC(=O)[C@@H](N)CCCCN)C(=O)N[C@@H](CCCCN)C(=O)N[C@H](C(=O)N[C@H](C(=O)N[C@H](C(=O)O)C(c1ccccc1)c1ccccc1)C(c1ccccc1)c1ccccc1)C(c1ccccc1)c1ccccc1 (H-KKKK[Dip][Dip][Dip]-OH) , I see its MIC listed as > 100 µg/mL
